experiment: pKa of conjugate acid; assay type: physicochemical; conditions: read-out: pKa of conjugate acid (second)
assay readout: pKa
Answers are plain numbers.

For this compound ( CC(=O)c1c(C)c2cnc(Nc3ccc(N4CCNCC4)cn3)nc2n(C2CCCC2)c1=O ), measured pKa is 4.1

---

assay: water solubility; format: physicochemical; settings: pH 7.9, water, thermodynamic from solid, read-out: free base solubility
assay readout: solubility at 14 h (µg/mL)
Answers are plain numbers, in µg/mL.

The reported solubility at 14 h of the compound CC(=O)c1c(C)c2cnc(Nc3ccc(N4CCNCC4)cn3)nc2n(C2CCCC2)c1=O [Formula 1] was 9.2
